test system: HeLa; assay: Cytotoxicity against human HeLa cells assessed as cell death at 5 to […] incubated for 48 hrs by LDH assay relative to control; type: cell-based
value-kind: Activity

Given the compound C/C=C/C(=O)c1c(OC)cc(=O)oc1C , what is its reported Activity?
0 to 6%

Attribution: ChEMBL document CHEMBL4406896
